# test-target: T1, AIRE-PHD1 Glu298Ala (human, UniProt O43918 293-354, Glu298Ala)
# T1 sequence (looked up): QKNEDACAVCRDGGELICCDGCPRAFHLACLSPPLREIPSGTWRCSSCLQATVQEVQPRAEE
# assay-explanation: ITC
property-label: pKd
// pKd here means minus log10 of the molar concentration (mol/L)

Return reported pKd; argument: ARTKQTARKS [non-modified histone H3 tail peptide H3K4me0 (residues 1-10)]
4.36

Cited source: paper PMC2685098
